# assay target: human TRPM8 (Homo sapiens, UniProt Q7Z2W7)
# Construct: expressed in transfected cells; host or cells: HEK293
# Sequence (Q7Z2W7 whole entry): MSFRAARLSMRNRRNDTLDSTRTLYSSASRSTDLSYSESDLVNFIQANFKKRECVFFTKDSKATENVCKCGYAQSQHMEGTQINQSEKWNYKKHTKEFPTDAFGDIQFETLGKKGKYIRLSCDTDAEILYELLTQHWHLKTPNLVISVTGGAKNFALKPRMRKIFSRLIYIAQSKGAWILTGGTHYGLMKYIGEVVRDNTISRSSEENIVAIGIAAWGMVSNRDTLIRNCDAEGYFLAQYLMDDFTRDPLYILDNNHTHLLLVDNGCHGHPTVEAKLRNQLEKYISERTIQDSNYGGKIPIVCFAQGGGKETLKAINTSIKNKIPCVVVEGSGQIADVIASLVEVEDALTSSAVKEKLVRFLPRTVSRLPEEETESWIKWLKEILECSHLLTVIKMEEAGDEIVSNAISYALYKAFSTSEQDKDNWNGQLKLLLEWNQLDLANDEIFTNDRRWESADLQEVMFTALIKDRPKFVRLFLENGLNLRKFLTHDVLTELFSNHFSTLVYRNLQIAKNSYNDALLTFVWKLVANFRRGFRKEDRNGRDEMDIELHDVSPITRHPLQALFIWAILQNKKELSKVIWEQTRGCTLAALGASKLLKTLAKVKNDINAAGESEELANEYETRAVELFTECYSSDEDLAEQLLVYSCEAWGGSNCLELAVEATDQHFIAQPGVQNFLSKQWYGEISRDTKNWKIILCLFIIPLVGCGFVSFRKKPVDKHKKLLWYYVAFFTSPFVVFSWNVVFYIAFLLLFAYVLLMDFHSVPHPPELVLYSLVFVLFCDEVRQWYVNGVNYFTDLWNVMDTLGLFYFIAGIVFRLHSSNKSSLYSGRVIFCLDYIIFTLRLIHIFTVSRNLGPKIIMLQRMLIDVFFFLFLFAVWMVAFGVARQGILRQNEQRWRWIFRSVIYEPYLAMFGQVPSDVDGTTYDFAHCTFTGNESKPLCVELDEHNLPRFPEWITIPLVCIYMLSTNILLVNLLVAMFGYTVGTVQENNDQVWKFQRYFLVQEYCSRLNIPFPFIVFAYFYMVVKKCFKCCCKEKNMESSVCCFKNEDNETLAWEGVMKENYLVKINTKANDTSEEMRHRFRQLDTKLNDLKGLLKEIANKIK
# experiment notes: Menthol-induced Ca2+ influx in HEK293 cells stably expressing human TRPM8
# Type: cell-based
# condition info: 30 microM menthol-induced Ca2+ influx, read-out: IC50 against TRPM8
List of IC50 values.

[
  {
    "structure notation": "Cc1nc(C(=O)CN2C(=O)NC3(CCC(F)(F)CC3)C2=O)n(C)c1-c1cc(F)cc(F)c1",
    "assay readout": "IC50",
    "meas value": "< 0.1 µM"
  },
  {
    "structure notation": "Cc1cccc(-n2c(C)nc(C(=O)CN3C(=O)NC4(CCCCC4)C3=O)c2C)c1",
    "assay readout": "IC50",
    "meas value": "< 0.1 µM"
  },
  {
    "structure notation": "Cc1sc(C(=O)CN2C(=O)NC3(CCC(F)(F)CC3)C2=O)c(C)c1-c1cccc(C#N)c1",
    "assay readout": "IC50",
    "meas value": "< 0.1 µM"
  },
  {
    "structure notation": "N#Cc1cccc(-c2ccc(C(=O)CN3C(=O)NC4(CCCCC4)C3=O)cn2)c1",
    "assay readout": "IC50",
    "meas value": "< 0.1 µM"
  },
  {
    "structure notation": "Cc1nc2ccc(C(F)(F)F)nc2n1-c1ccc(C(=O)CN2C(=O)NC3(CCC(F)(F)CC3)C2=O)cc1",
    "assay readout": "IC50",
    "meas value": "< 0.1 µM"
  },
  {
    "structure notation": "COC(=O)c1cccc(-n2c(C)cc(C(=O)CN3C(=O)NC4(CCCCC4)C3=O)c2C)c1",
    "assay readout": "IC50",
    "meas value": "< 0.1 µM"
  },
  {
    "structure notation": "Cc1nc2ccc(C#N)nc2n1-c1ccc(C(=O)CN2C(=O)NC3(CCC(F)(F)CC3)C2=O)cc1",
    "assay readout": "IC50",
    "meas value": "< 0.01 µM"
  },
  {
    "structure notation": "Cc1c(C(=O)CN2C(=O)NC3(CCCCC3)C2=O)nn(C)c1-c1cccnc1",
    "assay readout": "IC50",
    "meas value": "< 0.5 µM"
  },
  {
    "structure notation": "Cc1ccccc1-c1ccc(C(=O)CN2C(=O)NC3(CCC(F)(F)CC3)C2=O)nn1",
    "assay readout": "IC50",
    "meas value": "< 0.5 µM"
  },
  {
    "structure notation": "Cc1cnc(C)c(-c2ccc(C(=O)CN3C(=O)NC4(CCCCC4)C3=O)cc2)n1",
    "assay readout": "IC50",
    "meas value": "< 0.1 µM"
  }
]

Request: Item Cc1cc(C(=O)CN2C(=O)NC3(CCC(F)(F)CC3)C2=O)sc1-c1cnccc1C(F)(F)F has what recorded IC50?
Result: < 0.1 µM

Request: Another compound to check: O=C(CN1C(=O)NC2(CCC(F)(F)CC2)C1=O)c1cc2cc(-c3cccnc3)ccc2o1
Result: < 0.5 µM

Request: And what about the compound O=C(CN1C(=O)NC2(CCC(F)(F)CC2)C1=O)c1ccc(-n2c(=O)[nH]c3cccnc32)cc1 ?
Result: < 0.1 µM

----------
# assay target: Human HERG (Homo sapiens, UniProt Q12809)
# Construct: expressed in transfected cells; host or cells: HEK293S (membrane homogenate)
# Sequence (Q12809 whole entry): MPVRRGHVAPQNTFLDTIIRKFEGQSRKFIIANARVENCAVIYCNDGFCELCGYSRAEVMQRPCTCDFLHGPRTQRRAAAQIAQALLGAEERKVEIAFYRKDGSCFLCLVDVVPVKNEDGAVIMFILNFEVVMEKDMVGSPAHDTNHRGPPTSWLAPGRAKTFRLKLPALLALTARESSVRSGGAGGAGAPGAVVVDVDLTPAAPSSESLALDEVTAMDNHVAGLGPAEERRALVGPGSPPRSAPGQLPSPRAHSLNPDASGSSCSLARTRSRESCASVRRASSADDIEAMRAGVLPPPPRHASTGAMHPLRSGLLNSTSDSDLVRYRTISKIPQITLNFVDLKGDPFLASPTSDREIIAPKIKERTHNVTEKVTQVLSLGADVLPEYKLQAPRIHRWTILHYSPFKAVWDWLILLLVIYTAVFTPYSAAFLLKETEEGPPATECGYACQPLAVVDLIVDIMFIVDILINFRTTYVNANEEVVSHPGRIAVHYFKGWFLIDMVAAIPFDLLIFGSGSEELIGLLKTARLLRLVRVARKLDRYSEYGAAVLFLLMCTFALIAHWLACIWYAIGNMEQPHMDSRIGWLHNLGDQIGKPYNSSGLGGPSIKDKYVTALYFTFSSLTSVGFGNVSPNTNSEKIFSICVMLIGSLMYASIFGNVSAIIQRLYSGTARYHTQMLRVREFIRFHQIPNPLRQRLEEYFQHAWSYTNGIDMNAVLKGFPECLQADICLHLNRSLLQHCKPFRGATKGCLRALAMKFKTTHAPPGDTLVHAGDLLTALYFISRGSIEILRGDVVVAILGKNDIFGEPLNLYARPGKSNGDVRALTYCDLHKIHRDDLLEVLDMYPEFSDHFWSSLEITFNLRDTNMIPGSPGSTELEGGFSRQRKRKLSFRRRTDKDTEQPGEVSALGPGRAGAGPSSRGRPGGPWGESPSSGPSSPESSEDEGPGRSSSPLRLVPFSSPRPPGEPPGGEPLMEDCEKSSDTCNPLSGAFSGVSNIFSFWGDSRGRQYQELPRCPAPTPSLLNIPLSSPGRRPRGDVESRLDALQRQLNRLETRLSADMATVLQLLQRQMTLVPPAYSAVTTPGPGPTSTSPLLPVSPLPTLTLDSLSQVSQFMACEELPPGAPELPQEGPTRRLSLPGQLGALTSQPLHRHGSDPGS
# experiment notes: Human dofetilide binding assay
# condition info: Human HERG transfected HEK293S cell membranes
assay readout: Ki (µM)
Entry rule: numbers only, all in µM.

Request: Would you mind telling me what Ki value was observed for CC(C)[C@@H]1CC[C@@H](C)C[C@]12NC(=O)C(CC(=O)c1ccccc1)C2=O (stereo partly shown) ?
Result: 6.5

----------
# assay target: UniProt Q7Z2W7
# experiment notes: Menthol-induced Ca2+ influx in HEK293 cells stably expressing human TRPM8
# condition info: 30 microM menthol-induced Ca2+ influx, read-out: IC50 against TRPM8
pIC50: −log10 of the molar value.
pIC50 for assorted molecules

Solved entries:
[
  {
    "molecule": "O=C(CN1C(=O)NC2(CCC(F)(F)CC2)C1=O)c1ccc(-c2n[nH]c3ccccc23)cc1 [Example 6-32]",
    "assay readout": "pIC50",
    "meas value": "> 7.00"
  },
  {
    "molecule": "O=C(CN1C(=O)NC2(CCC(F)(F)CC2)C1=O)c1ccc(Oc2ncccn2)cc1 [Example 5-20]",
    "assay readout": "pIC50",
    "meas value": "> 7.00"
  },
  {
    "molecule": "O=C(CN1C(=O)NC2(CCC(F)(F)CC2)C1=O)c1ccc(-n2ccc3cccnc32)nc1 [Example 19-10]",
    "assay readout": "pIC50",
    "meas value": "> 7.00"
  },
  {
    "molecule": "CN(c1ccccn1)c1ccc(C(=O)CN2C(=O)NC3(CCCCC3)C2=O)cn1 [Example 19-2]",
    "assay readout": "pIC50",
    "meas value": "> 7.00"
  },
  {
    "molecule": "Cc1ccccc1-c1ccc(C(=O)CN2C(=O)NC3(CCC(F)(F)CC3)C2=O)cn1 [Example 9-11]",
    "assay readout": "pIC50",
    "meas value": "> 8.00"
  },
  {
    "molecule": "O=C(CN1C(=O)NC2(CCC(F)(F)CC2)C1=O)c1ccc(-c2cccnc2OCCO)cc1 [Example 6-17]",
    "assay readout": "pIC50",
    "meas value": "> 7.00"
  },
  {
    "molecule": "Nc1cnccc1-c1ccc(C(=O)CN2C(=O)NC3(CCC(F)(F)CC3)C2=O)cc1 [Example 6-113]",
    "assay readout": "pIC50",
    "meas value": "> 6.30"
  },
  {
    "molecule": "O=C(CN1CC2(CCC(F)(F)CC2)OC1=O)c1ccc(-c2ccccc2CO)cc1 [Example 13-55]",
    "assay readout": "pIC50",
    "meas value": "> 7.00"
  }
]

Request: For the molecule O=C(CN1C(=O)NC2(CCC(F)(F)CC2)C1=O)c1cnc(-c2ccccc2CO)cn1 [Example 12-3] , what pIC50 is on record?
Result: > 7.00

----------
# experiment notes: Metabolic stability assay: half-life in human liver microsomes (HLM)
# Type: in vitro ADME
# condition info: human, pH 7.4, read-out: intrinsic clearance (CLint)
assay readout: CLint scaled at 1 microM

Request: Record request: CLint scaled at 1 microM value, item CC(C)[C@@H]1CC[C@@H](C)C[C@]12NC(=O)C(CC(=O)c1ccccc1)C2=O (stereo partly shown) [closest compound]
Result: > 215 mL/min/kg

----------
Quick reference: pIC50 of the listed items.
# assay target: UniProtKB Q7Z2W7
# experiment notes: Menthol-induced Ca2+ influx in HEK293 cells stably expressing human TRPM8
# condition info: 30 microM menthol-induced Ca2+ influx, read-out: IC50 against TRPM8
pIC50: −log10 of the molar value.

These solved cases illustrate the format of a correct answer.
[
  {
    "compound": "O=C(CN1C(=O)NC2(CCCCC2)C1=O)c1ccc(Oc2cccc(Cl)c2)nc1 [Example 20-1]",
    "assay target": "UniProtKB Q7Z2W7",
    "meas value": "> 7.00"
  },
  {
    "compound": "Cc1cc(C(=O)CN2C(=O)NC3(CCC(F)(F)CC3)C2=O)n(C)c1-c1cccc(C(N)=O)c1 [Example 16-6]",
    "assay target": "UniProtKB Q7Z2W7",
    "meas value": "> 7.00"
  },
  {
    "compound": "CC(=O)c1cccc(-c2c(C)cc(C(=O)CN3C(=O)NC4(CCC(F)(F)CC4)C3=O)n2C)c1 [Example 16-20]",
    "assay target": "UniProtKB Q7Z2W7",
    "meas value": "> 7.00"
  }
]

Request: Consider the compound shown here: N#Cc1nccnc1-c1ccc(C(=O)CN2C(=O)NC3(CCC(F)(F)CC3)C2=O)cc1 [Example 6-3] What is its recorded pIC50?
Result: > 8.00

Request: Another compound to check: O=C(CN1C(=O)NC2(CCC(F)(F)CC2)C1=O)c1ccc(-c2nccs2)cc1 [Example 6-95]
Result: > 6.30

Request: Cc1cccnc1Oc1ccc(C(=O)CN2C(=O)NC3(CCC(F)(F)CC3)C2=O)cc1 [Example 21-3] ?
Result: > 6.30

Request: Let us now turn to O=C(CN1C(=O)NC2(CCC(F)(F)CC2)C1=O)c1cc(F)c(-c2ccccc2CO)c(F)c1 [Example 13-32]
Result: > 7.00

Request: Same for Cc1c(C(=O)CN2C(=O)NC3(CCC(F)(F)CC3)C2=O)cn(C)c1-c1cncc(F)c1 [Example 16-23]
Result: > 7.00

Request: Would you mind doing Cc1nc2cccnc2n1-c1ccc(C(=O)CN2C(=O)NC3(CCC(F)(F)CC3)C2=O)cc1 [Example 5-10] as well?
Result: > 8.00
